# credit: PubChem BioAssay (NCI)

# Protocol: NCI Yeast Anticancer Drug Screen. Data for the bub3 strain (AID 167)
# Experimental Setup: S. cerevisiae bub3 mutant strain, at 11.0 µM, stronger effect = higher value
About 79,000 compounds went through this panel and 15% of them were active in at least one assay; those are over-represented in the sample as a whole.
Result Type: growth inhibition (%)

>>> numeric_readout("O=[N+]([O-])c1cc[n+]([O-])cc1")
2
>>> numeric_readout("Cc1cc2c3ccccc3c3ccccc3c2nn1")
7
>>> numeric_readout("CCCOC(=O)C(F)C(Br)C(=O)OCCC (configuration not stated)")
93
>>> numeric_readout("CCN(CC)CCOc1cc(C)c2cc(Cc3ccccc3)ccc2n1")
9
>>> numeric_readout("Clc1ccc2c(c1)N(CCCN1CCCC13CCCCC3)c1ccccc1S2")
1
>>> numeric_readout("CN(C)C=NC1CCC(C(C)(C)C)CC1 (configuration not stated)")
55
>>> numeric_readout("c1ccc2c(c1)sc1c3cnccc3ccc21")
24

----------
# Protocol: NCI Yeast Anticancer Drug Screen. Data for the rad50EPP+ strain (AID 151);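 note: 0% = growth of vehicle-treated control cultures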
# Experimental Setup: S. cerevisiae rad50 mutant strain, at 11.0 µM, stronger effect = higher value
About 79,000 compounds went through this panel and 15% of them were active in at least one assay; those are over-represented in the sample as a whole.
Here the recorded growth inhibition is given for each entry.
Result Type: growth inhibition (%)

>>> numeric_readout("c1ccc2c(OCC3CO3)cccc2c1 (configuration not stated)")
73
>>> numeric_readout("Cc1ccc([N+]2=NC(c3ccccc3)=NN(c3ccccc3)C2)cc1")
35
>>> numeric_readout("O=C1c2ccccc2C(=O)c2cc(CCl)ccc21")
64
>>> numeric_readout("O=C1NC(=O)c2ccc([N+](=O)[O-])c3cccc1c23")
65
>>> numeric_readout("COc1cccc2c1C(=O)c1c(O)c3c(c(O)c1C2=O)CC(O)(C(O)CO)CC3OC1CC(N2CCOCC2)C(O)C(C)O1 (configuration not stated)")
97
>>> numeric_readout("O=C1CC(=O)c2ccccc21")
6
>>> numeric_readout("CC(C)CN(CC(C)C)C(=O)c1ccc(Cl)c(Cl)c1")
2
>>> numeric_readout("COc1cc(/C=C2\\NC(=O)N(/C=C3\\C(=O)Oc4ccccc4C3=O)C2=O)ccc1O")
1
>>> numeric_readout("OCc1ccccc1Cc1ccccc1")
8
>>> numeric_readout("O=C(CC(=O)n1nc(-c2ccccc2)c(N=Nc2ccc(Cl)cc2)c1-c1ccccc1)Nc1cccc(Cl)c1")
14
>>> numeric_readout("CN1C(=O)c2ccc3ccccc3c2C1=O")
42
>>> numeric_readout("COc1ccc(N=CN(C)C)c(C)c1")
-62

----------
# Protocol: NCI Yeast Anticancer Drug Screen. Data for the sgs1 strain (AID 173);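 note: 0% = growth of vehicle-only control cultures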
# Experimental Setup: S. cerevisiae sgs1 mutant, at 11.0 µM, stronger effect = higher value
About 79,000 compounds went through this panel and 15% of them were active in at least one assay; those are over-represented in the sample as a whole.
Result Type: growth inhibition (%)

>>> numeric_readout("COC1=C(N)C(=O)c2nc(-c3nc(C(=O)O)c(C)c(-c4ccc(OC)c(OC)c4O)c3N)ccc2C1=O")
98
>>> numeric_readout("O=C(O)CNC(=S)Nc1ccccc1")
-39
>>> numeric_readout("COC(=O)Nc1cn2ccc(C(Cl)=C(Cl)Cl)cc2n1")
-18
>>> numeric_readout("COc1cc(/C=C2\\NC(=O)N(/C=C3\\C(=O)Oc4ccccc4C3=O)C2=O)ccc1O")
14
>>> numeric_readout("OC(CCNCc1ccccc1)c1ccc2ccccc2c1 (stereo unspecified)")
70
>>> numeric_readout("Cc1ccc(Cl)cc1NC(=O)OCCN(C)C(=O)Nc1cc(Cl)ccc1C")
-23
>>> numeric_readout("Brc1ccccc1-c1ncc(-c2ccccc2)o1")
7
>>> numeric_readout("c1ccc2[nH]c(-c3cscn3)nc2c1")
-1
>>> numeric_readout("COc1cc2cc3c4cc(OC)c(OC)cc4cc[n+]3c(C)c2cc1OC")
-28
>>> numeric_readout("CCc1c(Cl)c(C)cc(O)c1Cl")
5
>>> numeric_readout("CC[n+]1oc(C(=O)c2ccc(Cl)cc2)c(-c2ccccc2)c1-c1ccccc1.[Cl][Fe]([Cl])([Cl])[Cl]")
18

----------
Recorded growth inhibition, one value per entry.
# Protocol: NCI Yeast Anticancer Drug Screen. Data for the rad18 strain (AID 177)
# Experimental Setup: S. cerevisiae rad18 mutant growth inhibition; at 33.0 µM; stronger effect = higher value
The panel holds about 79,000 compounds, 15% with a hit somewhere; the sample as a whole holds those more often.
Result Type: growth inhibition (%)

>>> numeric_readout("Cc1nc(-c2cc3cc([N+](=O)[O-])ccc3oc2=O)cs1")
34
>>> numeric_readout("CC(C)(C)[Si](C)(C)OCC1CCC(n2cnc3c(NC(=O)c4ccccc4)ncnc32)O1 (stereo unspecified)")
1
>>> numeric_readout("Cc1c(-c2ccccn2)ccc2ccccc12")
13
>>> numeric_readout("CSc1nnc(SC)nn1")
67
>>> numeric_readout("CC1=NOC(=O)/C1=C/c1ccc2c(c1)OCO2")
36
>>> numeric_readout("CC(C)(C)c1ccc(NS(=O)(=O)c2ccc(N)cc2)cc1")
23
>>> numeric_readout("CCOC(=O)C1N=[N+](c2ccccc2)C(=O)/C1=C\\n1c(=S)[nH]c2ccc([N+](=O)[O-])cc21 (stereo unspecified)")
7
>>> numeric_readout("N#CC1=C(N)N(/N=C/c2ccccc2)C(c2ccccc2)C1(C#N)C#N (stereo unspecified)")
89
>>> numeric_readout("Nc1ccc2c(c1)C(=O)c1ccc(F)cc1-2")
35
>>> numeric_readout("CCCCCCCCCCCC1N=C(N)NC(CCCO)=C1C(=O)OC (stereo unspecified)")
99
>>> numeric_readout("CCC(=O)c1cc(C(=O)C(=S)SC)cc(C(=O)C(=S)SC)c1")
98

----------
# Protocol: NCI Yeast Anticancer Drug Screen. Data for the rad18 strain (AID 177)
# Experimental Setup: S. cerevisiae rad18 mutant growth inhibition; at 33.0 µM; stronger effect = higher value
This is part of a sample that, as a whole, favours compounds with a hit. Of some 79,000 tested, about 15% had one in any assay.
Is growth inhibition at least 60%? Then True. If not, False.

>>> assigned_category("Cc1nc2c(Br)cc(Br)cc2c(=O)n1-c1ccccc1NC1OCC(O)C(O)C1O (configuration not stated)")
"True"
>>> assigned_category("CCOC(=O)CC1(C(=O)OCC)c2[nH]c3ccccc3c2CCN1Cc1ccccc1 (configuration not stated)")
"False"
>>> assigned_category("N/C(=N/N=C/c1cc(Br)cc(Br)c1O)NO")
"True"
>>> assigned_category("COc1ccc([N+](=O)[O-])c2c(NCCCN(C)C)c3ccccc3nc12")
"True"
>>> assigned_category("O=C(c1ccc([N+](=O)[O-])cc1)C1N=NCC1c1ccccc1 (configuration not stated)")
"False"
>>> assigned_category("Cc1nc(Nc2ccccc2[N+](=O)[O-])sc1C(=O)CC(=O)C(=O)Nc1c(C(C)C)cccc1C(C)C")
"False"
>>> assigned_category("Cc1c(C)c(C)c(CSC(=N)N)c(C)c1C")
"False"
>>> assigned_category("Clc1ccc2c(c1)N(CCCN1CCCC13CCCCC3)c1ccccc1S2")
"False"
>>> assigned_category("C[CH2][Sn]([CH2]C)([O]C(=O)C(N)Cc1ccccc1)[O]C(=O)C(N)Cc1ccccc1 (configuration not stated)")
"False"
>>> assigned_category("COc1cc2ccnc(-c3c4ccccc4c(N)c4c(OC)c(OC)ccc34)c2cc1OC")
"False"
>>> assigned_category("CCCCCCOC(=O)NCCOC(=O)Nc1ccccc1")
"False"
>>> assigned_category("N#CNC(N)=Nc1cc2ccccc2c2ccccc12")
"True"
>>> assigned_category("Cc1c2cccc(Sc3ccccc3)c2c2c3c(cccc13)[S+](c1ccccc1)C2 (configuration not stated)")
"True"
>>> assigned_category("COc1cccc(/C=N/C(/N=C/c2cccc(OC)c2O)c2cccc(OC)c2O)c1O")
"True"
>>> assigned_category("CNC(=O)OCc1c(COC(=O)NC)c(-c2ccc(Cl)c(Cl)c2)n2c1SCC2")
"False"
>>> assigned_category("Cc1cc(N(CCOS(C)(=O)=O)CCOS(C)(=O)=O)ccc1C=Nc1ccc(-c2nc(Cc3ccccc3)sc2C)cc1")
"True"
>>> assigned_category("CC1CC(C)(C)CC(OCCN2CCCCC2)(c2ccccc2)C1 (configuration not stated)")
"False"
>>> assigned_category("O=C(O)CCCC1CCCc2c1ccc1ccccc21 (configuration not stated)")
"False"
>>> assigned_category("COC1CCC(O)C(/C=C/[N+](=O)[O-])C1 (configuration not stated)")
"True"
>>> assigned_category("C=C(Cl)COC(=O)Nc1cccc(Cl)c1")
"False"
>>> assigned_category("CCOC(=O)c1[nH]cc(C)c1-c1cccn1-c1ccc(Cl)cc1[N+](=O)[O-]")
"False"
>>> assigned_category("CCCCCCN(CCCCCC)CC(O)c1ccnc2ccc(OC)cc12 (configuration not stated)")
"False"
